test system: SK-OV-3 ovarian; assay: NCI-60 one-dose screen, 48 h (100 = growth as untreated, 0 = no growth, -100 = all killed); settings: 10 µM unless noted
About 83,000 compounds went through this panel and 20% of them were active in at least one assay; those are over-represented in the sample as a whole.
# reported growth; entries follow
Output spec: scalar in %, unitless text.

{"Smiles Code": "COc1cc(C(=O)Nc2ccc(N(C)C)cc2)cc(OC)c1OC", "growth, %": 85.7}

Briefly, growth measured for `CCCCCCNc1nc(N2CCOCC2)c2[nH]c(NCCCCCC)nc2n1` : -97.1

Briefly, growth measured for `CC(C)C(=O)c1ccc(Cl)s1` : 101

Briefly, growth measured for `c1ccc(C(=NNc2nc3ccccc3o2)c2ccccn2)nc1` : 13.8

Briefly, growth measured for `CCN(CC)CCCNc1c2ccc(Cl)cc2nc2ccc(OC)cc12` : 3.94

Briefly, growth measured for `CC(C)(C)c1cc(C[P+](c2ccc(Cl)cc2)(c2ccc(Cl)cc2)c2ccc(Cl)cc2)cc(C(C)(C)C)c1O` : 88.9

---

system: OVCAR-4 ovarian; test: NCI-60 one-dose screen, 48 h; conditions: 10 µM unless noted
Compounds without any hit were thinned out: in the full panel of roughly 83,000, 20% have a hit. Active and inactive are the calls of the source. The calls were made as follows: active = growth percent below 10; inactive = the rest.
Use one of these outcomes when replying: active, inactive

As a guide, the following entries are already answered.
{"Compound": "O=C(OCC1CC2(Cl)C(Cl)=C(Cl)C1(Cl)C2(Cl)Cl)C1C(C(=O)OCC2CC3(Cl)C(Cl)=C(Cl)C2(Cl)C3(Cl)Cl)C2(Cl)C(Cl)=C(Cl)C1(Cl)C2(Cl)Cl (stereo not drawn)", "Assay Target": "OVCAR-4 ovarian", "Group Label": "inactive"}
{"Compound": "CC(=O)OCC(=O)[C@@]1(O)[C@H](C)C[C@H]2[C@@H]3C=C(C)C4=Cc5c(cnn5-c5ccc(F)cc5)C[C@]4(C)[C@H]3[C@@H](O)C[C@@]21C", "Assay Target": "OVCAR-4 ovarian", "Group Label": "inactive"}

Each compound tested received a call. Report the one for `O=C(O)c1ccc(-c2nn(-c3ccc(C(=O)O)cc3)cc2CNc2ccc(Br)cc2)cc1` .
inactive

Each compound tested received a call. Report the one for `N=c1c2c(=O)n3c(nc2nc2sc4ccc(Cl)cc4n12)-c1ccccc1Sc1ccccc1-3` .
active

Each compound tested received a call. Report the one for `CNc1ccc(Nc2ccc(S(=O)(=O)O)cc2)c2c1C(=O)c1ccccc1C2=O` .
inactive

Each compound tested received a call. Report the one for `COc1ccc(-c2nnc(SCC(=O)Nc3ccc(C(=O)/C=C/c4cc(OC)c(OC)c(OC)c4)cc3)n2-c2ccccc2)cc1OC` .
active

Each compound tested received a call. Report the one for `C/C(=N\Nc1ccc(Cl)cn1)c1ccccn1` .
inactive

Each compound tested received a call. Report the one for `COc1ccc2cnc(N)c(C#Cc3cc(C(=O)Nc4ccc(CN5CCN(C)CC5)c(C(F)(F)F)c4)cnc3C)c2c1` .
inactive

---

system: UACC-62 melanoma; experiment: NCI-60 one-dose screen, 48 h (100 = growth as untreated, 0 = no growth, -100 = all killed); details: 10 µM unless noted
This is part of a sample that, as a whole, favours compounds with a hit. Of some 83,000 tested, about 20% had one in any assay.
Quick rule for you: growth under 90% gets T, anything else gets F.

As a guide, the following entries are already answered.
{"Compound": "CCCCCCCCCC[N+](C)(C)C", "Group Label": "T"}
{"Compound": "N#Cc1c(N)nc(Nc2nc3ccccc3[nH]2)nc1-c1ccc(Cl)cc1", "Group Label": "F"}
{"Compound": "CCCCCCCCCCC(C[N+](C)(C)C/C=C/c1ccccc1)C(O)c1ccccc1 (stereo unspecified)", "Group Label": "T"}

Next up:
In the record for `Oc1ccccc1\C=N/N=C/C=C/c1ccccc1` , is growth less than 90%?
F

The reported numbers originate from PubChem BioAssay (NCI).
